All values here come from the supplement of paper PMC10627819.

- Tested on: S. pneumoniae D39V;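 also: first quartile when negative (synergy) and third quartile when positive (antagonism)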
- methodDescription: Bliss interaction score (quartile over a dose matrix) (fitness difference); higher = more antagonism (negative = synergy)
For each of the molecules below, state its Bliss interaction score.
Answers are plain numbers.

>>> readoutvalue("CCC[C@@H]1C[C@@H](C(=O)N[C@@H]([C@H]2O[C@H](SC)[C@H](O)[C@@H](O)[C@H]2O)[C@@H](C)O)N(C)C1 [Lincomycin] + CC1(C)S[C@@H]2[C@H](NC(=O)Cc3ccccc3)C(=O)N2[C@H]1C(=O)O [PenicillinG]")
0.0998

Query: # input molecule: CC(=O)OC[C@H]1O[C@@H]([S-])[C@H](OC(C)=O)[C@@H](OC(C)=O)[C@@H]1OC(C)=O.CCP(CC)CC.[Au+] [Auranofin] + C[C@@H]1O[C@@H]1P(=O)(O)O [Fosfomycin] ; wanted: its Bliss interaction score
Result: -0.0421
